// provenance: patent US9957267B2

// EC50 lookup, one value per entry
- STUDY TARGET: SSTR5 (Homo sapiens)
- Construct: expressed in transfected cells
- Sequence (P35346 whole entry): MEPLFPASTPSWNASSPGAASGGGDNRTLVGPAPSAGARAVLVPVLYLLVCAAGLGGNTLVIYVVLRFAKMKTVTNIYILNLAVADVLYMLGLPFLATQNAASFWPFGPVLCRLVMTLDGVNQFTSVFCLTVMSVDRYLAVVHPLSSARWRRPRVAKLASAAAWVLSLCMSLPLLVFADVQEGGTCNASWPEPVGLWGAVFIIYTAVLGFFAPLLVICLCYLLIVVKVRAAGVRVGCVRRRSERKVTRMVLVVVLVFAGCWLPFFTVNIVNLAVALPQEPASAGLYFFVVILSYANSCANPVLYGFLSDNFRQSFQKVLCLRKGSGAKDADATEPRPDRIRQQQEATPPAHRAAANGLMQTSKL
- ASSAY PROCEDURE: cAMP functional agonist assay, CHO cells expressing SSTR5
- Format: cell-based
- EXPERIMENTAL CONDITIONS: CHO cells stably expressing SSTR5, cAMP

MOLECULE: CCCN(CCN)Cc1c(-c2cc(C)cc(C)c2)cnc2ncn(-c3cccc(O)c3)c(=O)c12
EC50: 0.1 to 10 µM

MOLECULE: Cc1cc(C)cc(-c2cnc3ncn(-c4cccc(O)c4)c(=O)c3c2CN(C)CC2COCCN2)c1 (stereo not shown)
EC50: > 10 µM

MOLECULE: Cc1cc(C)cc(-c2cnc3ncn(-c4cccc(O)c4)c(=O)c3c2CN(C)C[C@H]2CCCN2)c1
EC50: > 10 µM

MOLECULE: Cc1cc(C)cc(-c2cnc3ncn(-c4cccc(C#N)c4)c(=O)c3c2CN(C)C[C@@H]2CCCN2)c1
EC50: > 10 µM

----------
- STUDY TARGET: SSTR5 (Homo sapiens)
- ASSAY PROCEDURE: cAMP functional agonist assay, CHO cells expressing SSTR5
- EXPERIMENTAL CONDITIONS: CHO cells stably expressing SSTR5, cAMP
pEC50: −log10 of the molar value.
We begin with a simple list: items and their reported pEC50.
TEST READOUT: pEC50

COMPOUND: Cc1cc(Cl)cc(-c2cnc3ncn(-c4cc(O)ccc4F)c(=O)c3c2CN(C)C[C@@H]2CCCN2)c1 [Compound A-54]
VALUE REPORTED: < 5.00

COMPOUND: CCN(CCN)Cc1c(-c2cc(C)cc(C)c2)cnc2ncn(-c3cccc(O)c3)c(=O)c12 [Compound A-2]
VALUE REPORTED: 5.00 to 7.00

COMPOUND: Cc1cc(C)cc(-c2cnc3ncn(-c4cc(O)cc(F)c4)c(=O)c3c2CN(C)C[C@@H]2CCCCN2)c1 [Compound A-27]
VALUE REPORTED: 5.00 to 7.00

COMPOUND: Cc1cc(C)cc(-c2cnc3ncn(-c4cccc(O)c4)c(=O)c3c2CN(C)CCNCc2ccccc2)c1 [Compound A-6]
VALUE REPORTED: < 5.00

COMPOUND: CC[C@H](N)CN(C)Cc1c(-c2cc(C)cc(C)c2)cnc2ncn(-c3cccc(O)c3)c(=O)c12 [Compound A-61]
VALUE REPORTED: < 5.00

COMPOUND: Cc1cc(Cl)cc(-c2cnc3ncn(-c4cc(O)cc(F)c4)c(=O)c3c2CN(C)C[C@H]2CCCN2)c1 [Compound A-53]
VALUE REPORTED: < 5.00

----------
- STUDY TARGET: SSTR3 (UniProt P32745)
- Sequence (P32745 whole entry): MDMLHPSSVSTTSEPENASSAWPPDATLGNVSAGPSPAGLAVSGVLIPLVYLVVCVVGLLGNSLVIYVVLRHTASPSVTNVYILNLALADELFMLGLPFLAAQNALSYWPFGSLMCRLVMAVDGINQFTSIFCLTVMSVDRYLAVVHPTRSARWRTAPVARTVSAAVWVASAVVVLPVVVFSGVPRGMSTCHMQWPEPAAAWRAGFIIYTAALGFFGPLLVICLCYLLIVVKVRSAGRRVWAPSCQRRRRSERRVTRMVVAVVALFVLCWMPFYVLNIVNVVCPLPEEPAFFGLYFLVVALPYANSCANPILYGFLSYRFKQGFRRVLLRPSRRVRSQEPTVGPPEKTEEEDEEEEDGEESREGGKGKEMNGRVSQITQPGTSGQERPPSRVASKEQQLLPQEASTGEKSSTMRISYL
- ASSAY PROCEDURE: cAMP functional agonist assay, CHO cells expressing SSTR3
- EXPERIMENTAL CONDITIONS: CHO cells stably expressing SSTR3, cAMP
- Experimental: Chinese hamster ovary (CHO) cells stably expressing one of the six human or rodent somatostatin receptor subtypes are grown to 85-100% confluence on standard tissue culture dishes in F12-Ham's growth media (Hyclone) with following additives: 10% donor calf serum (Hyclone), 200 U/mL penicillin (Hyclone), 200 μg/mL streptomycin (Hyclone), 20 mM HEPES (Hyclone), 200 μg/mL hygromycin Hyclone. […]
pEC50: −log10 of the molar value.
// pEC50 lookup, one value per entry

MOLECULE: Cc1cc(C)cc(-c2cnc3ncn(-c4cccc(O)c4)c(=O)c3c2CN(C)C[C@H]2CCCCN2)c1 [Compound A-14]
pEC50: > 7.00

MOLECULE: Cc1cc(C)cc(-c2cnc3ncn(-c4cccc(CO)c4)c(=O)c3c2CN(C)C[C@@H]2CCCN2)c1 [Compound A-40]
pEC50: 5.00 to 7.00

MOLECULE: Cc1cc(C)cc(-c2cnc3ncn(-c4cc(F)cc(C#N)c4)c(=O)c3c2CN(C)C[C@@H]2CCCN2)c1 [Compound A-46]
pEC50: 5.00 to 7.00

MOLECULE: Cc1cc(C)cc(-c2cnc3ncn(-c4cccc(C(N)=O)c4)c(=O)c3c2CN(C)C[C@@H]2CCCN2)c1 [Compound A-39]
pEC50: 5.00 to 7.00

MOLECULE: Cc1cc(Cl)cc(-c2cnc3nc(C(C)C)n(-c4cccc(O)c4)c(=O)c3c2CN(C)C[C@@H]2CCCN2)c1 [Compound A-58]
pEC50: 5.00 to 7.00

MOLECULE: Cc1cc(Cl)cc(-c2cnc3ncn(-c4cc(O)cc(C(F)(F)F)c4)c(=O)c3c2CN(C)C[C@@H]2CCCN2)c1 [Compound A-48]
pEC50: > 7.00

MOLECULE: CCOC(=O)CNCCN(CC)Cc1c(-c2cc(C)cc(C)c2)cnc2ncn(-c3cccc(O)c3)c(=O)c12 [Compound A-68]
pEC50: < 5.00

MOLECULE: Cc1cc(C)cc(-c2cnc3ncn(-c4cccc(O)c4)c(=O)c3c2CN(C)CC2CCCCN2)c1 (stereo not drawn) [Compound A-13]
pEC50: > 7.00

MOLECULE: Cc1cc(C)cc(-c2cnc3ncn(-c4cccc(O)c4)c(=O)c3c2CN(C)CC2(N)CCCC2)c1 [Compound A-12]
pEC50: 5.00 to 7.00

MOLECULE: CN(Cc1c(-c2cccc(CO)c2)cnc2ncn(-c3cccc(O)c3)c(=O)c12)C[C@@H]1CCCN1 [Compound A-34]
pEC50: 5.00 to 7.00

MOLECULE: COc1cccc(-c2cnc3ncn(-c4cccc(O)c4)c(=O)c3c2CN(C)CC2CCCCN2)c1 (stereo not drawn) [Compound A-23]
pEC50: > 7.00

MOLECULE: CCN(Cc1c(-c2cc(C)cc(C)c2)cnc2ncn(-c3cccc(O)c3)c(=O)c12)C[C@H](C)N [Compound A-9]
pEC50: > 7.00

MOLECULE: Cc1cc(C)cc(-c2cnc3ncn(-c4cccc(O)c4)c(=O)c3c2CN(C)C[C@@H]2CCCN2)c1 [Compound A-17]
pEC50: > 7.00

MOLECULE: Cc1cc(C)cc(-c2cnc3ncn(-c4cc(C)cc(O)c4)c(=O)c3c2CN(C)C[C@@H]2CCCN2)c1 [Compound A-44]
pEC50: > 7.00

MOLECULE: Cc1cc(C)cc(-c2cnc3ncn(-c4cccc(O)c4)c(=O)c3c2CN(CCN)Cc2ccccc2)c1 [Compound A-5]
pEC50: 5.00 to 7.00

----------
# EC50 per entry
- STUDY TARGET: UniProtKB P32745
- ASSAY PROCEDURE: cAMP functional agonist assay, CHO cells expressing SSTR3
- EXPERIMENTAL CONDITIONS: CHO cells stably expressing SSTR3, cAMP

MOLECULE: Cc1cc(Cl)cc(-c2cnc3ncn(-c4cc(O)cc(F)c4)c(=O)c3c2CN(C)C[C@H]2CCCN2)c1 [Compound A-53]
STUDY TARGET: UniProtKB P32745
EC50: < 100 nM

MOLECULE: Cc1cc(C)cc(-c2cnc3ncn(-c4cccc(O)c4)c(=O)c3c2CN(C)CCN)c1 [Compound A-1]
STUDY TARGET: UniProtKB P32745
EC50: 100 to 10000 nM

MOLECULE: Cc1cc(Cl)cc(-c2cnc3nc(C)n(-c4cc(F)cc(C#N)c4)c(=O)c3c2CN(C)C[C@@H]2CCCN2)c1 [Compound A-60]
STUDY TARGET: UniProtKB P32745
EC50: < 100 nM

MOLECULE: CCc1nc2ncc(-c3cc(C)cc(Cl)c3)c(CN(C)C[C@@H]3CCCN3)c2c(=O)n1-c1cccc(O)c1 [Compound A-57]
STUDY TARGET: UniProtKB P32745
EC50: < 100 nM

MOLECULE: Cc1cccc(-c2cnc3ncn(-c4cccc(O)c4)c(=O)c3c2CN(C)CC2CCCCN2)c1 (stereo not drawn) [Compound A-21]
STUDY TARGET: UniProtKB P32745
EC50: < 100 nM

MOLECULE: CN(Cc1c(-c2cccc3ccccc23)cnc2ncn(-c3cccc(O)c3)c(=O)c12)CC1CCCCN1 (stereo not drawn) [Compound A-69]
STUDY TARGET: UniProtKB P32745
EC50: < 100 nM

MOLECULE: Cc1cc(C)c(F)c(-c2cnc3ncn(-c4cccc(O)c4)c(=O)c3c2CN(C)CC2CCCCN2)c1 (stereo not drawn) [Compound A-70]
STUDY TARGET: UniProtKB P32745
EC50: < 100 nM

MOLECULE: Cc1cc(C)cc(-c2cnc3ncn(-c4cccc(C#N)c4)c(=O)c3c2CN(C)C[C@@H]2CCCN2)c1 [Compound A-42]
STUDY TARGET: UniProtKB P32745
EC50: 100 to 10000 nM

MOLECULE: Cc1cc(C)cc(-c2cnc3ncn(-c4ccc(O)cc4)c(=O)c3c2CN(C)C[C@@H]2CCCN2)c1 [Compound A-41]
STUDY TARGET: UniProtKB P32745
EC50: 100 to 10000 nM

MOLECULE: Cc1cc(F)cc(-c2cnc3ncn(-c4cccc(O)c4)c(=O)c3c2CN(C)CC2CCCCN2)c1 (stereo not drawn) [Compound A-25]
STUDY TARGET: UniProtKB P32745
EC50: < 100 nM

MOLECULE: Cc1cc(Cl)cc(-c2cnc3ncn(-c4cc(O)ccc4F)c(=O)c3c2CN(C)C[C@@H]2CCCN2)c1 [Compound A-54]
STUDY TARGET: UniProtKB P32745
EC50: < 100 nM

MOLECULE: COc1cccc(-n2cnc3ncc(-c4cc(C)cc(C)c4)c(CN(C)C[C@@H]4CCCN4)c3c2=O)c1 [Compound A-33]
STUDY TARGET: UniProtKB P32745
EC50: 100 to 10000 nM

MOLECULE: Cc1cc(C)cc(-c2cnc3ncn(-c4cccc(O)c4)c(=O)c3c2CN(C)C(C)CN)c1 (stereo not drawn) [Compound A-7]
STUDY TARGET: UniProtKB P32745
EC50: 100 to 10000 nM

MOLECULE: CN(Cc1c(-c2cccc(Cl)c2)cnc2ncn(-c3cccc(O)c3)c(=O)c12)CC1CCCCN1 (stereo not drawn) [Compound A-24]
STUDY TARGET: UniProtKB P32745
EC50: < 100 nM

MOLECULE: Cc1cc(Cl)cc(-c2cnc3ncn(-c4cc(O)cc(F)c4)c(=O)c3c2CN(C)C[C@@H]2CCCCN2)c1 [Compound A-28]
STUDY TARGET: UniProtKB P32745
EC50: < 100 nM
